Each entry below carries its reported protein stability index.
protocol_description: protein stability index of a GFP-peptide fusion (GPS, HEK-293T) (PSI 1-6); higher = more stable;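 also: 24-mer peptide tiles fused after GFP, lentivirally expressed, FACS-sorted into six equal bins by GFP/DsRed ratio, decoded by Illumina sequencing, PSI is the read-weighted mean bin number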
details: treatment: DMSO; c terminus: a fixed tail appended
observed_property: protein stability index

• YLEVAKHFKPHGFSSDKAKAGSSE [ATF4] = 3.97
• NGINGELTSADRETAEEVSARIVQ [MAP2] = 5.23
• SYFDMLYPEDSSWAAKAPGASSRE [SPDEF] = 3.56
• YLTIILILISFTCRFLLNSRVTDA [TMEM120A] = 3.19
• PDLLPTDYRKQLQYPNPLPVLSGA [VPS39] = 3.34
• FNMWGFGRVSKQASQPVKKQQENA [WDR41] = 3.12
• LSASKDRTMRLWNIEEIDEIPLVI [WDR88] = 2.19
• MPYNFCLPSLSCRTSCSSRPCVPP [KRT33B] = 2.34
• HTPSDTGVSFQAISSMADFWDFAQ [PKD2L1] = 2.85
• IKEVQKGGPADLAGLEDEDVIIEV [PDZK1] = 2.22
• VDDFRLKYENELALRQSVEADING [KRT13] = 4.67
• STPRPSITPTKKIELDRTIMPDGT [C2CD2L] = 4.76
• SSSYSVSSPRSVDSYSSTQHVPEE [ATF6] = 5.16
• FYFENLWSRNSKPVHTTILNPHIH [CAMK2A] = 2.33
• PVPPGWNPNSSSGKGSGGNAGSYI [DLX1] = 3.86
• VQRTQSVPVRRPARRRQSAGPWPR [RASAL3] = 4.55
• VRDGFSATFEKILESELLRGTQYS [PSD2] = 2.29
• DSDSCQKCDQPFFWNFKQMWDSKK [WDFY2] = 3.64
• DDPSLLKEAKTKYPNYEFISDNSI [FUT8] = 3.58
• GDVLHAHLDIWKSAAWMKERTSPG [SPDEF] = 2.92
• EDQYIFIHDALLEAVTCGNTEVPA [PTPRD] = 3.1
• KTKVPSNDNSSDLLYDDLYDDDID [UBE2R2] = 5.28
• FSGSLEPVACGSVLSEGSPLTEQE [SRPK2] = 5.23
• NNGIFQINSRRWCSNLTPNVPNVC [SPACA3] = 2.6
• YNIRTDSWTTVTSMTTPRCYVGAT [KLHL12] = 2.44
• RNSTPPSLARNPAPGVLTNKRKTY [ZC2HC1A] = 4.86
• EIITQSPGRSSVASPRRLSNVSSS [MAP2] = 3.43

Every entry's value here was drawn from the supplement of paper PMC10567573.
